These measurements were taken from PubChem BioAssay (NCI).

tested on: NCI-H226 lung; assay: NCI-60 one-dose screen, 48 h (100 = growth as untreated, 0 = no growth, -100 = all killed); conditions: 10 µM unless noted
This is part of a sample that, as a whole, favours compounds with a hit. Of some 83,000 tested, about 20% had one in any assay.
We label by threshold. Values of growth strictly beneath 40% are yes (1). Values of 40% and up are no (0).

MOLECULE	SUBJECT_OF_TEST	CATEGORY_LABEL
COc1ccc(/C(=C/c2ccc3ccccc3c2)c2nn[nH]n2)cc1OC	NCI-H226 lung	no (0)
O=C([C@@H](COCc1ccccc1)N1C(=O)[C@@H](N2C(=O)OC[C@@H]2c2ccccc2)[C@H]1/C=C/c1ccccc1)N1CCC(CCN2CCCCC2)CC1	NCI-H226 lung	no (0)
Cn1c(=O)c2[nH]c(C(O)C(O)C(O)C(O)CO)nc2n(C)c1=O (stereo not given)	NCI-H226 lung	no (0)
CCN(CC)c1ccc(CNc2cc(C)nc3ccc(OC)cc23)cc1	NCI-H226 lung	no (0)
Cc1ccc(S(=O)(=O)N(CCc2ccc(Cl)cc2)S(=O)(=O)c2ccc(C)cc2)cc1	NCI-H226 lung	no (0)
O=C(/C=C/c1ccc(Cl)cc1)c1ccc(O)c(CN2CCN(c3cc4c(cc3F)c(=O)c(C(=O)O)cn4C3CC3)CC2)c1	NCI-H226 lung	no (0)
O=C(/C=C/c1cccc(Br)c1)c1ccccc1	NCI-H226 lung	no (0)
Nc1c(C(=O)Nc2ccccc2Cl)sc2nc3c(cc12)CCCCCC3	NCI-H226 lung	yes (1)
O=C(COc1cccc(/C=C2/Oc3ccccc3C2=O)c1)Nc1nccs1	NCI-H226 lung	no (0)
Cn1c(=O)c2c(ncn2CC[N+](C)(C)C)n(C)c1=O	NCI-H226 lung	no (0)
Cc1cc(N/N=C/c2nc(-c3ccc(Cl)cc3)oc2C)c2cc(Br)ccc2n1	NCI-H226 lung	no (0)
CC/C=C\C[C@H](F)C/C=C1/C(=O)C=C[C@@H]1C/C=C\CCCC(=O)OC	NCI-H226 lung	yes (1)
Clc1nc(Cl)c2c3c(sc2n1)CCCC3	NCI-H226 lung	yes (1)
O=C(O)c1cn(C2CC2)c2cc(N3CCN(Cc4nc5c(cnn5-c5ccc([N+](=O)[O-])cc5)c(=O)[nH]4)CC3)c(F)cc2c1=O	NCI-H226 lung	no (0)
COc1ccc(-c2cc(-c3ccc(N(C)C)cc3)nc(NC(=O)c3ccncc3)n2)cc1	NCI-H226 lung	no (0)
Cc1cc(Nc2nc(-c3cccnc3)nc3ccccc23)n[nH]1	NCI-H226 lung	no (0)
COc1ccc(-c2csc(NC(=O)CN3CCN(c4cc5c(cc4F)c(=O)c(C(=O)O)cn5C4CC4)CC3)n2)cc1	NCI-H226 lung	yes (1)
COc1ccc(CCN2CCCn3c2nc2ccccc2c3=O)cc1	NCI-H226 lung	yes (1)
O=c1c2c3c(sc2n2c(CCl)nnc2n1Cc1ccccc1)CCCC3	NCI-H226 lung	yes (1)

* * *

test system: HCT-15 colon; experiment: NCI-60 one-dose screen, 48 h (100 = growth as untreated, 0 = no growth, -100 = all killed); details: 10 µM unless noted
The panel holds about 83,000 compounds, 20% with a hit somewhere; the sample as a whole holds those more often.

MOLECULE	UNIT_OF_MEASUREMENT	growth
COc1cc(OC)c(/C=C/C(=O)c2c(OC)cc(OC)cc2OC)c(OC)c1	%	26
COc1ccc(-c2nc(Nc3cc(C)[nH]n3)c3ccccc3n2)cc1	%	42.4
COc1ccc(/C=C2\N=C3SC=C(N)N3C2=O)cc1	%	20.7
Cc1sc2nc3[nH]/c(=C\c4ccc(Cl)cc4)c(=O)n3c(=O)c2c1C	%	96.5
CCN(CC)CCCCNc1ccc(NCCCCN(CC)CC)c2c1C(=O)c1ccccc1C2=O	%	76.2
CCN(CC)C12CCCCC1(C)C(C#N)(C#N)C(C#N)=C(N)O2 (stereo unspecified)	%	106

* * *

# maps each entry to its growth
test system: U251 CNS; experiment: NCI-60 one-dose screen, 48 h (100 = growth as untreated, 0 = no growth, -100 = all killed); details: 10 µM unless noted
This is part of a sample that, as a whole, favours compounds with a hit. Of some 83,000 tested, about 20% had one in any assay. Activity calls are given as the source filed them. Rule for the calls: active = growth percent below 10; inactive = the rest.
ASSAY_READOUT: growth

CCN(CC)Cc1cc(Nc2c3ccccc3nc3cc(Cl)ccc23)ccc1O -51.6% (active)
N#Cc1c(N)nc(N)nc1Nc1ccc(Br)cc1 96.9% (inactive)
C(=N\Nc1nnn(Cc2ccccc2)n1)/c1ccccc1 31.7% (inactive)
O=[N+]([O-])c1c(F)cccc1Nc1cccc(F)c1 105% (inactive)
C=C(C[n+]1ccccc1)[C@@H]1CC[C@]2(C(=O)OC)CC[C@]3(C)[C@H](CC[C@@H]4[C@@]5(C)CC[C@H](O)C(C)(C)[C@@H]5CC[C@]43C)[C@@H]12 99% (inactive)

* * *

tested on: CCRF-CEM leukemia; test: NCI-60 one-dose screen, 48 h (100 = growth as untreated, 0 = no growth, -100 = all killed); conditions: 10 µM unless noted
The panel holds about 83,000 compounds, 20% with a hit somewhere; the sample as a whole holds those more often.
ASSAY_READOUT: growth (%)

COMPOUND	ASSAY_READOUT	QUANTITATIVE_RESULT
CC(=O)C1=C(O)C=C2Oc3c(C(=O)/C=C/c4c(Cl)cccc4Cl)c(O)c(C)c(O)c3[C@]2(C)C1=O	growth	-25.3
Nc1nc(SCc2ccccc2)c2ncn(C3CCCC3)c2n1	growth	96.3
CCOC(=O)N1CCN(c2nc(Nc3cc(C)[nH]n3)c3ccccc3n2)CC1	growth	40.1
COc1cccc(-c2nc3sccn3c2-c2ccnc(NCCCNS(=O)(=O)c3ccccc3)c2)c1	growth	12.3
O=C1Nc2ccccc2C12CC(c1ccccc1)=NN2 (centres undefined)	growth	49.2
O=C(CO[N+](=O)[O-])Nc1ccc(C(=O)/C=C/c2ccc(Cl)cc2)cc1	growth	20.1
O=C(/C=C/c1ccc(B(O)O)cc1)/C=C/c1ccc(B(O)O)cc1	growth	25
COc1ccc2[nH]c(=O)c(/C=C/C(=O)c3ccc(Nc4nccc(-c5ccc6ccccc6c5)n4)cc3)cc2c1	growth	86.4
COc1cc(C2C(C(=O)c3cccs3)=C(O)C(=O)N2CCN2CCOCC2)cc(OC)c1OC (centres undefined)	growth	120
C=C1CC2(OC1=O)C(=O)N(CCCCCCCCCCCCN1C(=O)C3(CC(=C)C(=O)O3)c3ccccc31)c1ccccc12 (centres undefined)	growth	4.77
C[C@]12C[C@@H](c3ccoc3)OC(=O)[C@@H]1CC[C@]1(C)[C@@H]2CC[C@@H](O)[C@]1(C)O	growth	69.3
CSc1nc(NCCCNc2ccnc3cc(Cl)ccc23)cc(-c2ccccc2)n1	growth	47
c1ccc(Sc2ncnc3ccccc23)cc1	growth	48.5
COC(=S)SCN(CSC(=S)OC)c1ccc(Cl)cc1	growth	77.7
ClC1=C2NC=NC2n2c(nnc2-c2ccc(Cl)cc2)N1 (centres undefined)	growth	99.9
COc1ccc(Cl)cc1Nc1nc(C(F)(F)F)ccc1C(=O)N/N=C/c1cccnc1	growth	13
Cc1nn(-c2nc3ccccc3[nH]2)c2c1C(c1ccc3c(c1)OCO3)CC(=O)N2 (centres undefined)	growth	12.1
CC1=C(C)C(=O)OC([C@](C)(O)[C@]2(O)CC[C@@]3(O)[C@@H]4C[C@H]5O[C@]56CC=CC(=O)[C@]6(C)[C@H]4CC[C@]23COC(=O)c2ccc(C)o2)C1 (some centres undefined)	growth	0.17
COc1cc(C#N)cc(OC)c1OCCN(CCOc1c(OC)cc(C#N)cc1OC)S(=O)(=O)c1ccc(C)cc1	growth	103

* * *

tested on: 786-0 renal; assay: NCI-60 one-dose screen, 48 h; settings: 10 µM unless noted
The panel holds about 83,000 compounds, 20% with a hit somewhere; the sample as a whole holds those more often. Activity calls are given as the source filed them. Rule for the calls: active = growth percent below 10; inactive = the rest.
Outcome codes: active, inactive

Cc1cc(Nc2nc(N3CCNCC3)nc3ccccc23)n[nH]1 inactive
O=S(=O)(Nc1ccc(Cl)cc1Cl)c1ccc(-c2cnc(C3CC3)o2)cc1 inactive
COc1ccc(-c2cnoc2-c2cc(OC)c3c(c2)OCCO3)cc1 active
O=C1c2cc3c(cc2-c2c1c1cc(Cl)c(Cl)cc1c(=O)n2C[C@H](O)CO)OCO3 active
COc1ccc(/C=C2\N=C3SC=C(N)N3C2=O)cc1 inactive
CCOC(=O)c1nc(Nc2cc(C)[nH]n2)c2ccccc2n1 inactive

* * *

system: HCT-15 colon; assay: NCI-60 one-dose screen, 48 h (100 = growth as untreated, 0 = no growth, -100 = all killed); settings: 10 µM unless noted
The panel holds about 83,000 compounds, 20% with a hit somewhere; the sample as a whole holds those more often.
ASSAY_READOUT: growth (%)

COMPOUND	ASSAY_READOUT	QUANTITATIVE_RESULT
NS(=O)(=O)c1ccc(Nc2nc3n[nH]c(Nc4ccccc4)c3c(=O)[nH]2)cc1	growth	108
O=C(O)C(O)C(O)C(=O)O.[NH-]C1CCCCC1[NH-].[Pt+2] (stereo unspecified)	growth	103
CN(C)c1ccc(C2Nc3ccccc3-n3cccc32)cc1 (stereo unspecified)	growth	89.7
C=C1CC2(OC1=O)C(=O)N(CCCCCCCCCCCCN1C(=O)C3(CC(=C)C(=O)O3)c3ccccc31)c1ccccc12 (stereo unspecified)	growth	65
CC(C)c1c(C(=O)Nc2ccccc2)c(-c2ccccc2)c(-c2ccc(F)cc2)n1CC[C@@H]1CC=CC(=O)O1	growth	-42.7
Nc1cc(-c2nc3sccn3c2-c2ccnc(NCCCNS(=O)(=O)c3ccc(F)cc3)n2)ccc1F	growth	28.3
O=C(CO[N+](=O)[O-])Nc1ccc(C(=O)/C=C/c2ccc3c(c2)OCO3)cc1	growth	76.7
Cc1cc(=O)oc2cc(Oc3nc(-c4cccs4)cn4c(-c5cccs5)cnc34)ccc12	growth	72.9
O=C(CN1CCN(c2cc3c(cc2F)c(=O)c(C(=O)N/N=C/c2ccccc2)cn3C2CC2)CC1)N/N=C\c1ccccc1	growth	53.9
Nc1c(C(=O)Nc2ccccc2)sc2nc3c(cc12)CN(CCc1ccccc1)CC3	growth	107
CCCN(CCC)CN(CCC)CCC	growth	102
COc1ccc(-c2c(C)noc2-c2ccc(O)cc2O)cc1	growth	68.8
CCCCCCCCCCCCS(=O)CC(C)O (stereo unspecified)	growth	104
Nc1cc2ccncc2c2ccccc12	growth	75.1
COc1ccc(C(=O)COc2ccc(/C=C3\Oc4ccc(Cl)cc4C3=O)cc2)cc1	growth	103
COc1cccc(-c2nc3sccn3c2-c2ccnc(NCCCNS(=O)(=O)c3ccc(Cl)cc3)c2)c1	growth	37.8
Cc1ccc2c(c1)C(=O)c1c-2c(OCCCN(C)C)nc2ccccc12	growth	-17.8
CN(C)C(=O)c1cc2cnc(Nc3ccc(-c4csc5c(=O)cc(N6CCNCC6)oc45)cc3)nc2n1C1CCCC1	growth	19.9
COc1cc2c(cc1O)CCc1cc(O)cc(OC)c1-2	growth	90.7
Cc1csc2ccc(Cl)cc12	growth	95.6
COc1cc2nc3cc([N+](=O)[O-])ccc3c(NCCCNCC(C)(C)O)c2cc1OC	growth	21.9
O=C(/C=C/c1cccc(Br)c1)c1ccccc1	growth	76.6
COc1cc(C2C(C(=O)c3cccs3)=C(O)C(=O)N2CCN2CCOCC2)cc(OC)c1OC (stereo unspecified)	growth	102
CC[C@H](Nc1nc(N)nc(C)c1C#N)c1nc2cccc(NCc3ccc(C(=O)NO)cc3)c2c(=O)n1-c1ccccc1	growth	38.7
O=C1C[C@H](N2C(=O)c3ccccc3S2(=O)=O)C2CO[C@@H]1O2	growth	59.6
Oc1c(Cl)cc(Cl)cc1CNc1nccnn1	growth	101
O=C(/C=C/c1ccc(Cl)cc1)c1ccc(O)c(CN2CCN(c3cc4c(cc3F)c(=O)c(C(=O)O)cn4C3CC3)CC2)c1	growth	45.4
O=C1C(=O)N(CCCCn2cc(CO)nn2)c2ccccc21	growth	102
O=C1Nc2c(ccc(Cl)c2Cl)/C1=C/c1cc(Br)c(O)c(Br)c1	growth	52.4
CC#Cc1nc2ccccc2c(=O)[nH]1	growth	3.71
COc1ccc2c(c1)C(=O)/C(=C/c1cccc(OCC(=O)Nc3nc4c(s3)CCCC4)c1)O2	growth	-15.7
COc1ccc(C(=O)/C=C/c2c(Cl)c3c(c(OC)c2Cl)OCC(=O)N3)cc1	growth	20.1
CCCCCCCCCCCCCCCC[N+]1(CC)CCCC1	growth	22.8
CN(C)CCCC(=O)Nc1ccc(Cn2nnc3c2C(=O)c2nnn(Cc4ccc(NC(=O)CCCN(C)C)cc4)c2C3=O)cc1	growth	94.5
COc1ccc(-n2c(C)nc3c(c(C)nn3-c3ccccc3)c2=O)cc1	growth	7.97
O=C(N/N=C/c1ccc(O)cc1O)c1cccnc1	growth	30.7
Cc1cc2cc3cc(C)c(N(C)C)cc3[n+](C)c2cc1N(C)C	growth	65.6
O=[N+]([O-])c1cccc(-c2nc3sccn3c2-c2ccnc(NCCCNS(=O)(=O)c3ccc(F)cc3)n2)c1	growth	-3.76
NC1=CSC2=N/C(=C\c3ccc(Cl)cc3)C(=O)N12	growth	66.7
O=C(Nc1cccc2c1C(=O)c1cccc(Nc3cccc4c3C(=O)c3cccc(NC(=O)c5ccccc5)c3C4=O)c1C2=O)c1ccccc1	growth	110
COCCCNc1nc(NC(=O)c2ccc(F)cc2C)cc(-c2cccnc2)n1	growth	109
